From: patent US20090143241A1

Quick list: pKi per entry.
Target: T1, ClpXP protease (E. coli ClpX6 with ClpP14) (E. coli, UniProt P0A6H1 1-424; P0A6G7 15-207)
T1 construct: Purified recombinant proteins mixed in the assay; also called SspB-ClpXP (when SspB is added); not shown: N-terminal His6 tag from pET28a; C-terminal His6 tag from pQE70
T1 sequence (P0A6H1 whole entry, chain 1 of 2): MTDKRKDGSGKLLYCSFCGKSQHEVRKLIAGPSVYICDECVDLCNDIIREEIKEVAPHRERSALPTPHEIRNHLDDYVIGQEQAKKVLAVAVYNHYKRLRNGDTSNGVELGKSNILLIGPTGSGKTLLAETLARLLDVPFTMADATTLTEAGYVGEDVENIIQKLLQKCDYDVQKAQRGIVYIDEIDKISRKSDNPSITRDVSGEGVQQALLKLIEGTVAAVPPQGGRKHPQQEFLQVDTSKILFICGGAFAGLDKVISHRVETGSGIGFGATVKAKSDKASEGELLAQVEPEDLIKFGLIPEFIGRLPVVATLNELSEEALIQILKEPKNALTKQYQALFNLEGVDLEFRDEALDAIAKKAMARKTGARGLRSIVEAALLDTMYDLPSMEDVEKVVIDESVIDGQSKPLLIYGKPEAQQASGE
T1 sequence (P0A6G7 15-207, chain 2 of 2): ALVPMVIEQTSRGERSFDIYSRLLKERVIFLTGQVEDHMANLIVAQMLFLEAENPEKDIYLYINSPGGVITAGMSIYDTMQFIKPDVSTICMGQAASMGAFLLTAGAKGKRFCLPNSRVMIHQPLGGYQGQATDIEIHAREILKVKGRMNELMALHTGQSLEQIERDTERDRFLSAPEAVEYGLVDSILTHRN
Assay: continuous fluorimetric assay of GFP-tag proteolysis by ClpXP, no SspB
pKi: −log10 of the molar value. Where no end group is shown, it is not given here.
Measurement type: pKi

1. SGSKGVLPL (head-to-tail cyclized (cyclic peptide), Chemically synthesized linear, circularized and HPLC purified; also called IXP3) [ICP1, cyclic SGSKGVLPL peptide] | 4.55
2. CRGGRPALRVVK (also: cyclized in vitro, ring type not given here) [cycXB, cyclic XB peptide [CRGGRPALRVVK] (Table 4)] | 5.22
